Target: DRw53 (Homo sapiens, UniProt P01903+P13762)
Sequence (P01903 26-254): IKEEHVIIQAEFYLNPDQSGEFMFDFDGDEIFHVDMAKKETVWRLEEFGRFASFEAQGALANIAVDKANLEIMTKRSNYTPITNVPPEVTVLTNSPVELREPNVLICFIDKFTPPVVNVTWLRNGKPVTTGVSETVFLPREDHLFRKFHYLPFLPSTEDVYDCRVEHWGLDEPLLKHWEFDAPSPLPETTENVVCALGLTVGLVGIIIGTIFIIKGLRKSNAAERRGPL
Sequence (P13762 30-266): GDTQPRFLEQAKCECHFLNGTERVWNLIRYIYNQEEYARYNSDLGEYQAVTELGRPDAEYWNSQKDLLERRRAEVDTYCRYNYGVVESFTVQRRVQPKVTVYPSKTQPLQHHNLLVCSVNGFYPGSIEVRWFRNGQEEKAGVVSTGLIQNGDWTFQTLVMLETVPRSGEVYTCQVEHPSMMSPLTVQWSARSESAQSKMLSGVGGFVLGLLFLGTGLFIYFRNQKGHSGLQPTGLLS
Experiment: biochemical
Consider the following compounds; for each one, report its IC50.
Output spec: scalar in nM, unitless text.

Lookup: What measured IC50 is associated with CC(C)C[C@H](NC(=O)[C@@H](NC(=O)[C@H](Cc1c[nH]c2ccccc12)NC(=O)[C@H](C)NC(=O)[C@H](C)NC(=O)[C@@H](NC(=O)[C@H](CC1CCCCC1)NC(=O)[C@H](CCCCN)NC(=O)[C@H](C)N)C(C)C)[C@@H](C)O)C(=O)N[C@@H](CCCCN)C(=O)N[C@@H](C)C(=O)N[C@@H](C)C(=O)N[C@@H](C)C(N)=O on DRw53 (Homo sapiens, UniProt P01903+P13762)?
Found: 170

Lookup: What measured IC50 is associated with CC(C)C[C@H](NC(=O)[C@@H](NC(=O)[C@H](CCCCN)NC(=O)[C@H](C)NC(=O)[C@H](C)NC(=O)[C@@H](NC(=O)[C@H](CC1CCCCC1)NC(=O)[C@H](CCCCN)NC(=O)[C@@H](C)N)C(C)C)[C@@H](C)O)C(=O)N[C@@H](CCCCN)C(=O)N[C@@H](C)C(=O)N[C@@H](C)C(=O)N[C@H](C)C(N)=O on DRw53 (Homo sapiens, UniProt P01903+P13762)?
Found: 52.8

Lookup: What measured IC50 is associated with CC(C)C[C@H](NC(=O)[C@@H](NC(=O)[C@H](Cc1ccc(O)cc1)NC(=O)[C@H](C)NC(=O)[C@H](C)NC(=O)[C@@H](NC(=O)[C@H](CC1CCCCC1)NC(=O)[C@H](CCCCN)NC(=O)[C@@H](C)N)C(C)C)[C@@H](C)O)C(=O)N[C@@H](CCCCN)C(=O)N[C@@H](C)C(=O)N[C@@H](C)C(=O)N[C@H](C)C(N)=O on DRw53 (Homo sapiens, UniProt P01903+P13762)?
Found: 86.4

###

System: PBMC from normal individuals
Experiment: In vitro T cell proliferative responses of human PBMC ([3H]thymidine incorporation)
Format: cell-based
Conditions: 3rd Stimulation, donor X372
Measure: X372 (Δmax cpm)
Output spec: scalar in cpm, unitless text.

Lookup: Endpoint output: X372 (Δmax cpm) of CC(C)C[C@H](NC(=O)[C@@H](NC(=O)[C@H](Cc1ccc(O)cc1)NC(=O)[C@H](C)NC(=O)[C@H](C)NC(=O)[C@@H](NC(=O)[C@H](CC1CCCCC1)NC(=O)[C@H](CCCCN)NC(=O)[C@@H](C)N)C(C)C)[C@@H](C)O)C(=O)N[C@@H](CCCCN)C(=O)N[C@@H](C)C(=O)N[C@@H](C)C(=O)N[C@H](C)C(N)=O [965.09] . Value?
Found: 29159

Lookup: Endpoint output: X372 (Δmax cpm) of CC(C)C[C@H](NC(=O)[C@@H](NC(=O)[C@H](Cc1c[nH]c2ccccc12)NC(=O)[C@H](C)NC(=O)[C@H](C)NC(=O)[C@@H](NC(=O)[C@H](CC1CCCCC1)NC(=O)[C@H](CCCCN)NC(=O)[C@H](C)N)C(C)C)[C@@H](C)O)C(=O)N[C@@H](CCCCN)C(=O)N[C@@H](C)C(=O)N[C@@H](C)C(=O)N[C@@H](C)C(N)=O [965.17] . Value?
Found: 30661

Lookup: Endpoint output: X372 (Δmax cpm) of CC(C)C[C@H](NC(=O)[C@@H](NC(=O)[C@H](Cc1c[nH]cn1)NC(=O)[C@H](C)NC(=O)[C@H](C)NC(=O)[C@@H](NC(=O)[C@H](CC1CCCCC1)NC(=O)[C@H](CCCCN)NC(=O)[C@@H](C)N)C(C)C)[C@@H](C)O)C(=O)N[C@@H](CCCCN)C(=O)N[C@@H](C)C(=O)N[C@@H](C)C(=O)N[C@H](C)C(N)=O [965.15] . Value?
Found: 30810

Data provenance: patent US20050049197A1
